Target System: Bile salt export pump (Rattus norvegicus)
Sequence (O70127 whole entry): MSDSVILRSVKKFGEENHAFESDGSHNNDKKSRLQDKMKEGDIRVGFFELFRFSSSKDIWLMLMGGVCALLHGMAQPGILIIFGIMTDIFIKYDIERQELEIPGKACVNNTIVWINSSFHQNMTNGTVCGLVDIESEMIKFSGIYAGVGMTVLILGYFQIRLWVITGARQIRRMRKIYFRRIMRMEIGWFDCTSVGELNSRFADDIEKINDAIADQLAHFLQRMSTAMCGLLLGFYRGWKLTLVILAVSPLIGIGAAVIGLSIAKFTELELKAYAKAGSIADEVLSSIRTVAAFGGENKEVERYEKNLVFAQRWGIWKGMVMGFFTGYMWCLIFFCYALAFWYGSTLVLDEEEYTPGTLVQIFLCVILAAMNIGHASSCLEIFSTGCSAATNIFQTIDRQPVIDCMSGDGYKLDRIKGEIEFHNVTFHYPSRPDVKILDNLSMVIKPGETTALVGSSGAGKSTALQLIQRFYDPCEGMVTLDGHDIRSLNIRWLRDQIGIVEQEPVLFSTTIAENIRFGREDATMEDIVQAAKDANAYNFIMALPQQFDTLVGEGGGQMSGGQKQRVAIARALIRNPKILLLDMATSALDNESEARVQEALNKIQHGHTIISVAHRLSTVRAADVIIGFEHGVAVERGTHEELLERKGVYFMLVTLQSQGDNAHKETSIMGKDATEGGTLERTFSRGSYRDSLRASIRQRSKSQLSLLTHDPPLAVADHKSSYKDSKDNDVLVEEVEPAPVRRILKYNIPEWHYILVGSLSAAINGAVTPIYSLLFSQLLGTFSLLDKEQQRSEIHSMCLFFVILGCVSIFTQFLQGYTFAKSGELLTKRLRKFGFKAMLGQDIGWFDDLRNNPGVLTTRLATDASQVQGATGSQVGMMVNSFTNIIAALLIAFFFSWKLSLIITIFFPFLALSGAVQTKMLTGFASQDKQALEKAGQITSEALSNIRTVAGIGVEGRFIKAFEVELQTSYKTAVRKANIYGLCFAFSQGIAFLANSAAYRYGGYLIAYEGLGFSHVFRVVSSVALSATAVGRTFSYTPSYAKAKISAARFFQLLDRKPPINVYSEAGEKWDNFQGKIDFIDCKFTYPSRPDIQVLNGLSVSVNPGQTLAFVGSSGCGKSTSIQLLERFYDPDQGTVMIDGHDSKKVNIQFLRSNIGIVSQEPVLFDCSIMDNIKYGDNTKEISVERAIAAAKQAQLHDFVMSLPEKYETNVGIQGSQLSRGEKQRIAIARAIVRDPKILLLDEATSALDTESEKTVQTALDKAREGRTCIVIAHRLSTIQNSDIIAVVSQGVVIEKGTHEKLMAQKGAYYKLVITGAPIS
Assay Notes: TP_TRANSPORTER: inhibition of Taurocholate uptake (Taurocholate: 1 uM) in membrane vesicles isolated from Bsep-expressing Sf9 cells
Type: functional, cell membranes, Membrane vesicle
pIC50: −log10 of the molar value. Where a name gives a salt, the structure may show the parent alone.
# pIC50 per entry
Measured Quantity: pIC50

Molecule	Numeric Result
C[C@H](CCC(=O)NCCS(=O)(=O)O)C1CC[C@H]2[C@@H]3[C@H](O)C[C@@H]4C[C@H](OS(=O)(=O)O)CC[C@]4(C)[C@H]3CC[C@]12C (some centres not stated) [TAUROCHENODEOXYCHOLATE SULFATE]	4.17
C[C@H](CCC(=O)NCCS(=O)(=O)O)C1CC[C@H]2[C@@H]3CC[C@@H]4C[C@H](OS(=O)(=O)O)CC[C@]4(C)[C@H]3CC[C@]12C (some centres not stated)	4.21
